Measurement record for Mu-type opioid receptor (Homo sapiens); quantity recorded: pKi.
To interpret pKi, take it as minus log10 of a concentration measured in moles per litre.

input: Which pKi is reported for this compound? NC(=O)[C@@]1(Cc2ccc(F)cc2)C[C@H]2CC[C@@H](C1)N2C(c1ccccc1Cl)c1ccccc1Cl
output: 7.07

input: Same lookup for N[C@]1(c2ccc(F)cn2)C[C@H]2CC[C@@H](C1)N2C(c1ccccc1Cl)c1ccccc1Cl , please.
output: 6.68

input: Same lookup for NC(=O)[C@]1(c2cccnc2)C[C@H]2CC[C@@H](C1)N2C(c1ccccc1Cl)c1ccccc1Cl , please.
output: 7.15

input: Same lookup for Cc1ccc([C@@]2(C(N)=O)C[C@H]3CC[C@@H](C2)N3C(c2ccccc2Cl)c2ccccc2Cl)nc1 , please.
output: 7.59

input: Same lookup for NC(=O)[C@]1(c2ccncc2)C[C@H]2CC[C@@H](C1)N2C(c1ccccc1Cl)c1ccccc1Cl , please.
output: 6.58

input: Same lookup for NC(=O)[C@]1(c2ccccn2)C[C@H]2CC[C@@H](C1)N2C(c1ccccc1Cl)c1ccccc1Cl , please.
output: 7.28

input: Same lookup for NC(=O)[C@]1(c2ccc(Cl)cn2)C[C@H]2CC[C@@H](C1)N2C(c1ccccc1Cl)c1ccccc1Cl , please.
output: 6.84

input: Same lookup for NC(=O)[C@]1(c2ccc(F)cn2)C[C@H]2CC[C@@H](C1)N2C(c1ccccc1Cl)c1ccccc1Cl , please.
output: 6.91

input: Same lookup for NC(=O)[C@]1(c2ccc(Br)nc2)C[C@H]2CC[C@@H](C1)N2C(c1ccccc1Cl)c1ccccc1Cl , please.
output: 7.34

input: Same lookup for N[C@]1(Cc2ccc(Cl)cc2)C[C@H]2CC[C@@H](C1)N2C(c1ccccc1Cl)c1ccccc1Cl , please.
output: 6.35

input: Same lookup for CC(=O)N[C@]1(c2ccc(F)cn2)C[C@H]2CC[C@@H](C1)N2C(c1ccccc1Cl)c1ccccc1Cl , please.
output: 6.22

input: Same lookup for COC(=O)N[C@]1(c2ccc(Cl)cn2)C[C@H]2CC[C@@H](C1)N2C(c1ccccc1Cl)c1ccccc1Cl , please.
output: 6.02

input: Same lookup for NC(=O)[C@]1(c2ccc(Br)cn2)C[C@H]2CC[C@@H](C1)N2C(c1ccccc1Cl)c1ccccc1Cl , please.
output: 6.82

input: Same lookup for NC(=O)[C@]1(c2cccc(F)n2)C[C@H]2CC[C@@H](C1)N2C(c1ccccc1Cl)c1ccccc1Cl , please.
output: 6.46

input: Same lookup for N[C@]1(c2ccccn2)C[C@H]2CC[C@@H](C1)N2C(c1ccccc1Cl)c1ccccc1Cl , please.
output: 6.46

input: Same lookup for COC(=O)N[C@]1(c2ccccn2)C[C@H]2CC[C@@H](C1)N2C(c1ccccc1Cl)c1ccccc1Cl , please.
output: 6.13

input: Same lookup for NC(=O)[C@]1(c2cc(F)cc(F)n2)C[C@H]2CC[C@@H](C1)N2C(c1ccccc1Cl)c1ccccc1Cl , please.
output: 6.33

input: Same lookup for COC(=O)NC1(c2ccc(F)cn2)C[C@H]2CC[C@H](C1)N2C(c1ccccc1Cl)c1ccccc1Cl (relative stereo) , please.
output: 6.05
